system: fibrin
measurement description: Fibrin Affinity; method not stated
assay readout: Ki (µM)
Write down the numeric answer in µM and omit the unit.

The reported value for QWECPYGLCWIQ […] in terms of Ki is 4.7

// data source = patent US20070185311A1
